target: CDK2/Cyclin E complex (Homo sapiens, UniProt P24941); experiment: CDK2/Cyclin E fluorescence-based microfluidic mobility shift assay (CDK2 Biochemical Caliper Assay); details: read-out: Biochemical CDK2/CyclinE Caliper IC50
pIC50: −log10 of the molar value.
measuredProperty: pIC50

molecule | pIC50
Cn1nc(COC(F)(F)F)cc1C(=O)Nc1cc([C@@H]2C[C@H](OC(=O)NC3(C)COC3)CO2)[nH]n1 | ≥ 7.00

Requested field: pIC50. Item: Cc1cc(CC(=O)Nc2cc([C@@H]3CC[C@H](NC(=O)[C@@H](O)C(C)C)C3)[nH]n2)on1 (single isomer, unassigned) 6.00 to 6.60

Please give the measured pIC50 for this molecule: COCc1cc2c(Nc3cc([C@@H]4CC[C@H](OC(=O)NC(C)C)C4)[nH]n3)nccn2n1 (single isomer, unassigned) ≥ 7.00

Data request, read-out pIC50, for CC1(NC(=O)O[C@H]2CO[C@@H](c3cc(Nc4nccn5nc(COC(F)F)cc45)n[nH]3)C2)CC1 ≥ 7.00

Reported pIC50 for COCc1cc2c(Nc3cc([C@@H]4C[C@H](Oc5nncn5C5(C)CC5)CO4)[nH]n3)nccn2n1 : what is it? ≥ 7.00

Recorded pIC50 of CC(C)NC(=O)O[C@H]1CO[C@@H](c2cc(Nc3ccc4c(c3)C(C)(C)NC4=O)n[nH]2)C1 (single isomer, unassigned) , please. ≥ 7.00

Please look up its pIC50: COCc1cc(C(=O)Nc2cc([C@H]3CC[C@@H](Oc4cccnc4C(C)C)C3)[nH]n2)n(C)n1 (single isomer, unassigned) 6.60 to 7.00

Looking for the measured pIC50 of CC(C)c1ccnnc1O[C@H]1CC[C@@H](c2cc(Nc3nccc4ncsc34)n[nH]2)C1 , can you help? ≥ 7.00

Requested field: pIC50. Item: Cc1ncccc1O[C@H]1CC[C@@H](c2cc(Nc3nccn4nccc34)n[nH]2)C1 (single isomer, unassigned) ≥ 7.00

---

molecular target: CDK2/Cyclin E complex (Homo sapiens); assay: CDK2/Cyclin E fluorescence-based microfluidic mobility shift assay (CDK2 Biochemical Caliper Assay); details: read-out: Biochemical CDK2/CyclinE Caliper IC50
pIC50: −log10 of the molar value.
measuredProperty: pIC50

A selection of reference data follows.
compound | systemUnderTest | pIC50
Cc1cc(CC(=O)Nc2cc([C@@H]3CC[C@@H](O)C3)[nH]n2)on1 (single isomer, unassigned) | CDK2/Cyclin E complex (Homo sapiens) | 4.00 to 6.00
COCc1cc(C(=O)Nc2cc([C@H]3CC[C@@H](Oc4cncnc4C)C3)[nH]n2)n(C)n1 (single isomer, unassigned) | CDK2/Cyclin E complex (Homo sapiens) | 4.00 to 6.00
Cc1cc(CC(=O)Nc2cc([C@H]3CC[C@@H](OC(=O)N4CC5C(C4)C5(C)C)C3)[nH]n2)on1 (some centres unmarked) | CDK2/Cyclin E complex (Homo sapiens) | ≥ 7.00
c1cncc(O[C@@H]2CC[C@H](c3cc(Nc4ncnc5ncccc45)n[nH]3)C2)c1 (single isomer, unassigned) | CDK2/Cyclin E complex (Homo sapiens) | 4.00 to 6.00

# query: pIC50 of entry Cc1cc(CC(=O)Nc2cc([C@H]3C[C@@H](OC(=O)NC(C)C)CO3)[nH]n2)on1 (single isomer, unassigned) 6.60 to 7.00

I have this compound here, Cc1ncccc1O[C@@H]1CC[C@H](c2cc(Nc3ncnc4ncccc34)n[nH]2)C1 (single isomer, unassigned) , and I need its recorded pIC50. 4.00 to 6.00

Quick check: pIC50 of N#CCc1c[nH]c2nccc(Nc3cc(C4CCCC4)[nH]n3)c12 ? 4.00 to 6.00

Would you kindly share the measured pIC50 for CCOCc1cc(C(=O)Nc2cc([C@H]3C[C@@H](COC(=O)NC(C)C)C3)[nH]n2)n(C)n1 ? ≥ 7.00
